Just for reference, paper PMC5540273 is where these values come from.

tested on: CAMK2D; details: concentration: 1 μM, replicates: in singlicate; n = 1;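 further: KINOMEscan kinase panel screen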
%Inh for assorted compounds
Dear colleague, please return just the value in %, with no unit written.

Take a look at these entries with their results.
compound=CN(c1ccc(NC(=O)Nc2cc(C(F)(F)F)ccc2F)cc1)c1ccnc(Nc2ccc(S(N)(=O)=O)cc2)n1 system_tested=CAMK2D readout_kind=%Inh reported_result=1
compound=O=C(Nc1cccc(-c2nn3ccccc3c2-c2ccnc(Nc3cccc(F)c3)n2)c1)c1c(F)ccc(F)c1Cl system_tested=CAMK2D readout_kind=%Inh reported_result=0
compound=Cc1ccc(F)c(C(=O)Nc2cccc(-c3nn4ccccc4c3-c3ccnc(Nc4cccc(F)c4)n3)c2)c1F system_tested=CAMK2D readout_kind=%Inh reported_result=8
compound=Cl.NC(=O)c1cccc(Nc2nccc(Nc3ccc(Oc4c(Cl)cccc4Cl)c(Cl)c3)n2)c1 system_tested=CAMK2D readout_kind=%Inh reported_result=0
compound=CN(C)Cc1ccc(-c2ccc3c(Nc4ccc(Oc5ccccn5)cc4)ccnc3c2)o1 system_tested=CAMK2D readout_kind=%Inh reported_result=0

Specify %Inh for Fc1ccc(-c2ncn(C3CCNCC3)c2-c2ccnc(Oc3ccc(-c4ccccc4)cc3)n2)cc1 and stop. 14

Look up and report measured %Inh for this entry: CC(C)(C)c1ccc2nccc(Nc3cccc(O)c3)c2c1 0

Note down %Inh recorded for Cc1ccc(C(=O)Nc2ccc(Nc3ccnc4cc(-c5nccs5)ccc34)cc2O)cc1.Cl 0

Please give the documented %Inh of O=C(Nc1cccc(-c2nn3ccccc3c2-c2ccnc(Nc3cccc(C(F)(F)F)c3)n2)c1)c1c(F)cccc1F 5

Consider the compound Cl.Cl.NCC(NCc1ccc(-c2ccnc3[nH]ccc23)s1)c1ccccc1 (stereo not drawn) and give its recorded %Inh. 13

Name the recorded %Inh of the compound listed here: Nc1ncnc2c1nc(-c1ccccc1)n2-c1ccccc1 18

Recall and state the measured %Inh for CNC(=O)c1ccccc1Nc1nc(Nc2ccc(N3CCOCC3)cc2)ncc1Cl.Cl . 22

Give recorded %Inh. O=C(Nc1n[nH]c2cc(-c3ccoc3)ccc12)C1CC1 14

Please indicate %Inh recorded for CC(=O)Nc1nc2cnc(Nc3cc(NC(=O)c4cccc(C5(C#N)CC5)c4Cl)ccc3C)nc2s1 0

// Input: Cc1cccc(Nc2nc(N[C@H]3CCNC3)ncc2C(N)=O)c1.Cl . Output its %Inh only. 6

Annotate the compound COc1ccc(Nc2nccc(N3CCC(NC(=O)Nc4cccc(OC)c4)C3)n2)cc1 (stereo not drawn) with its measured %Inh. 2

Look up and state reported %Inh for Cc1ccc(S(=O)(=O)Nc2ccc(Nc3nccc(Nc4cccc5[nH]ncc45)n3)cc2)cc1 4

Return %Inh for the following compound: Nc1ncc(-c2ccc3nccc(-c4ccncc4)c3c2)cc1S(=O)(=O)N1CCOCC1 0

Supply measured %Inh of COc1cc2c(cc1OCCN1CCNCC1)ncc1c3ccc(C#N)cc3[nH]c21 in your reply. 88

# return recorded %Inh for entry CC(=O)N1CCN(c2ccc(Nc3nccc(-c4sc(C(C)C)nc4-c4cccc(NS(=O)(=O)c5cccc(Cl)c5)c4)n3)cn2)CC1 0
